bioavailability reference
ASSAY_OVERVIEW: Oral bioavailability in mouse
Format: ADME, organism-based
CONDITIONS_USED: in vivo
VALUE_KIND: bioavailability (%)

TEST_SMILES: COc1cncc(-n2c(=O)[nH]/c(=N\c3cc4cn(C)nc4cc3Cl)n(Cc3cc(Cl)c(F)cc3Oc3ccc(F)cc3)c2=O)c1
VALUE_KIND: bioavailability
UNIT_ANNOTATION: %
MEASURED_NUMBER: 98
//
TEST_SMILES: COCCOc1cncc(-n2c(=O)[nH]/c(=N\c3cc4cn(C)nc4cc3Cl)n(Cc3cc(Cl)c(F)cc3F)c2=O)c1
VALUE_KIND: bioavailability
UNIT_ANNOTATION: %
MEASURED_NUMBER: 101
//
TEST_SMILES: Cn1cc2cc(/N=c3\[nH]c(=O)n(-c4cccnc4)c(=O)n3Cc3cc(F)c(F)cc3F)c(Cl)cc2n1
VALUE_KIND: bioavailability
UNIT_ANNOTATION: %
MEASURED_NUMBER: 103
//
TEST_SMILES: Cc1cncc(-n2c(=O)[nH]/c(=N\c3cc4cn(C)nc4cc3Cl)n(Cc3cc(Cl)c(F)cc3Sc3cccc(F)c3)c2=O)c1
VALUE_KIND: bioavailability
UNIT_ANNOTATION: %
MEASURED_NUMBER: 60.5
//
TEST_SMILES: Cn1cc2cc(/N=c3\[nH]c(=O)n(-c4cncc(O[C@H]5CCOC5)c4)c(=O)n3Cc3cc(F)c(F)cc3F)c(Cl)cc2n1
VALUE_KIND: bioavailability
UNIT_ANNOTATION: %
MEASURED_NUMBER: 108
//
TEST_SMILES: Cc1cncc(-n2c(=O)[nH]/c(=N\c3cc4cn(C)nc4cc3Cl)n(Cc3cc(Cl)c(F)c(Oc4ccc(F)cc4)c3)c2=O)c1
VALUE_KIND: bioavailability
UNIT_ANNOTATION: %
MEASURED_NUMBER: 129
//
TEST_SMILES: COCCOc1cncc(-n2c(=O)[nH]/c(=N\c3cc4cn(C)nc4cc3Cl)n(Cc3cc(C#N)ccc3C)c2=O)c1
VALUE_KIND: bioavailability
UNIT_ANNOTATION: %
MEASURED_NUMBER: 44.1

---

ASSAY_OVERVIEW: Half life in mouse at 1 mg/kg, iv
Type: ADME, organism-based
CONDITIONS_USED: in vivo
Parameter: half-life. Scope: all listed entries.

TEST_SMILES: Cc1cncc(-n2c(=O)[nH]/c(=N\c3cc4cn(C)nc4cc3Cl)n(Cc3cc(Cl)c(F)cc3Sc3cccc(F)c3)c2=O)c1
UNIT_ANNOTATION: h
half-life: 6
//
TEST_SMILES: Cn1cc2cc(/N=c3\[nH]c(=O)n(-c4cncc(O[C@H]5CCOC5)c4)c(=O)n3Cc3cc(F)c(F)cc3F)c(Cl)cc2n1
UNIT_ANNOTATION: h
half-life: 1.5
//
TEST_SMILES: Cc1cncc(-n2c(=O)[nH]/c(=N\c3cc4cn(C)nc4cc3Cl)n(Cc3cc(Cl)c(F)cc3Oc3ccc(C#N)c(F)c3)c2=O)c1
UNIT_ANNOTATION: h
half-life: 2.2

---

Entries annotated with measured half-life
ASSAY_OVERVIEW: Metabolic stability in mouse liver microsomes assessed as half life
Assay type: ADME, Microsome
VALUE_KIND: half-life (h)

TEST_SMILES: Cn1cc2cc(/N=c3\[nH]c(=O)n(-c4cncc(O[C@H]5CCOC5)c4)c(=O)n3Cc3cc(F)c(F)cc3F)c(Cl)cc2n1
MEASURED_NUMBER: 4.19
--
TEST_SMILES: COc1cncc(-n2c(=O)[nH]/c(=N\c3cc4cn(C)nc4cc3Cl)n(Cc3cc(Cl)c(F)cc3Oc3ccc(F)cc3)c2=O)c1
MEASURED_NUMBER: 1.59
--
TEST_SMILES: COCCOc1cncc(-n2c(=O)[nH]/c(=N\c3cc4cn(C)nc4cc3Cl)n(Cc3cc(C#N)ccc3C)c2=O)c1
MEASURED_NUMBER: 4.89
--
TEST_SMILES: Cn1cc2cc(/N=c3\[nH]c(=O)n(-c4cncc(O[C@H]5CCOC5)c4)c(=O)n3Cc3cc(Cl)c(F)cc3F)c(Cl)cc2n1
MEASURED_NUMBER: 3.85
--
TEST_SMILES: Cn1cc2cc(/N=c3\[nH]c(=O)n(-c4cccnc4)c(=O)n3Cc3cc(F)c(F)cc3F)c(Cl)cc2n1
MEASURED_NUMBER: 2.64
--
TEST_SMILES: Cc1ccc(C#N)cc1Cn1c(=O)n(-c2cncc(SC3CC3)c2)c(=O)[nH]/c1=N\c1cc2cn(C)nc2cc1Cl
MEASURED_NUMBER: 0.85
--
TEST_SMILES: Cc1cncc(-n2c(=O)[nH]/c(=N\c3cc4cn(C)nc4cc3Cl)n(Cc3cc(Cl)c(F)cc3Sc3cccc(F)c3)c2=O)c1
MEASURED_NUMBER: 2.3
--
TEST_SMILES: Cc1cncc(-n2c(=O)[nH]/c(=N\c3cc4cn(C)nc4cc3Cl)n(Cc3cc(Cl)c(F)cc3Oc3ccc(C#N)c(F)c3)c2=O)c1
MEASURED_NUMBER: 0.892
--
TEST_SMILES: COCCOc1cncc(-n2c(=O)[nH]/c(=N\c3cc4cn(C)nc4cc3Cl)n(Cc3cc(Cl)c(F)cc3F)c2=O)c1
MEASURED_NUMBER: 1.28
